Sourced from ChEMBL document CHEMBL3988442

Molecular target: Protein translocase subunit SecA (Escherichia coli (strain K12))
Assay: Assay to Identify E. coli SecA ATPase Inhibitors
Type: functional
Set-up: scale not given: direction of the effect not stated beside the values
Conditions: 30 µM
Potency and affinity values are given separately.
Recorded Percent Effect values for a group of molecules are listed next.
Readout kind: Percent Effect (%)

molecule=CCN(CC)CCNC(=O)c1cnc(C(C)(C)C)s1 readout_kind="Percent Effect" experimental_value=-3.73
molecule="CC(C)C(C(=O)N1CCCN(Cc2nccn2C)CC1)N1CCCC1 (configuration not stated)" readout_kind="Percent Effect" experimental_value=-1.38
molecule="CC(C)c1nccn1C1CCCN(C(=O)c2cccc3c2OCO3)C1 (configuration not stated)" readout_kind="Percent Effect" experimental_value=1.99
molecule="N#Cc1cccnc1NCCNC(=O)N1CCCC(C(F)(F)F)C1 (configuration not stated)" readout_kind="Percent Effect" experimental_value=-0.35
molecule=Cc1ccccc1NS(=O)(=O)c1cc2c(c(C(=O)O)c1)OCCO2 readout_kind="Percent Effect" experimental_value=-8.46
molecule=CN(Cc1nnc(C2CC2)n1C)C(=O)c1ccnc(OC2CCC2)c1 readout_kind="Percent Effect" experimental_value=-5.02
molecule="O=C(CCCOCc1ccccc1)N1CCCC1c1ccccn1 (configuration not stated)" readout_kind="Percent Effect" experimental_value=-2.89
molecule="CCSCCNC(=O)C(c1cccc(C)c1)N(C)C (configuration not stated)" readout_kind="Percent Effect" experimental_value=0.71
molecule="Cc1noc(C(C)N2CCN(CCC(=O)N3CCCCC3)CC2)n1 (configuration not stated)" readout_kind="Percent Effect" experimental_value=-2.79
molecule=CNc1cc2c(nn1)CCN(C(=O)c1ccc(-n3nccc3C)cc1)C2 readout_kind="Percent Effect" experimental_value=-3.9
molecule="COCCN1CCOCC2(CCCN(Cc3ccc(C)o3)C2)C1 (configuration not stated)" readout_kind="Percent Effect" experimental_value=-2.04
molecule=CS(=O)(=O)CCSc1cccc(C#N)c1 readout_kind="Percent Effect" experimental_value=-3.18
molecule="Cc1nc(CN(C)C2CCN(Cc3ccc4c(c3)OCCO4)C2)no1 (configuration not stated)" readout_kind="Percent Effect" experimental_value=-7.11
molecule=Cc1csc(N2CCN(C(=O)CCn3cncn3)CC2)n1 readout_kind="Percent Effect" experimental_value=-2.99
molecule="CC(NC(=O)NCCOc1ccc(F)c(F)c1)c1nncn1C (configuration not stated)" readout_kind="Percent Effect" experimental_value=-3.44
molecule="Cc1cnn(CC2CN(Cc3nc(-c4ccoc4)no3)CCO2)c1 (configuration not stated)" readout_kind="Percent Effect" experimental_value=-2.87
molecule=CCOCCCC(=O)NCCC(=O)N1CCN(c2ccccn2)CC1 readout_kind="Percent Effect" experimental_value=-3.47
molecule=Cc1ccc(C(=O)NC2CCN(Cc3noc(CC(C)C)n3)CC2)s1 readout_kind="Percent Effect" experimental_value=-4.45
molecule=O=S(=O)(c1cccs1)N1CCCn2nnc(CN3CCCCC3)c2C1 readout_kind="Percent Effect" experimental_value=-2.04
molecule=O=C(c1ccc[nH]1)N1C[C@H]2CN(Cc3cccc(F)c3)C(=O)[C@H]2C1 readout_kind="Percent Effect" experimental_value=-2.55
molecule="Cc1cc(NC(=O)CCN2CCCC2Cn2cncn2)no1 (configuration not stated)" readout_kind="Percent Effect" experimental_value=-6.97
molecule="CCOCC1CN(C(=O)C2=CCCC2)Cc2cnn(CC)c21 (configuration not stated)" readout_kind="Percent Effect" experimental_value=-2.5
molecule=CC(C)NC(=O)Cn1cc(-c2ccccc2)cn1 readout_kind="Percent Effect" experimental_value=-1.92
molecule="CCN(C(c1cccnc1)c1ccc2c(c1)CCO2)S(C)(=O)=O (configuration not stated)" readout_kind="Percent Effect" experimental_value=-3.35
molecule=CCN(CC)C1CCN(C(=O)NCc2c(C)noc2C)CC1 readout_kind="Percent Effect" experimental_value=-3.56
molecule="CCN1CCCC(CNC(=O)C2(c3cccc(Cl)c3)CC2)C1 (configuration not stated)" readout_kind="Percent Effect" experimental_value=-4.26
molecule=O=C(NCCN1CCC(c2cccs2)CC1)c1ccccc1C(F)(F)F readout_kind="Percent Effect" experimental_value=-3.22
molecule=CN(Cc1ccc(F)cc1)C(=O)Cn1nc(-c2ccc(F)cc2)oc1=O readout_kind="Percent Effect" experimental_value=-0.937
molecule="CCc1n[nH]c(C2CN(C(=O)c3cc4c(s3)CCCC4)CCO2)n1 (configuration not stated)" readout_kind="Percent Effect" experimental_value=-1.02
molecule="CC(NC(=O)c1nc(=O)[nH][nH]1)c1ccc(OCC2CC2)c(F)c1 (configuration not stated)" readout_kind="Percent Effect" experimental_value=-5.77
molecule="Cc1cc(Nc2nc(C)cs2)nc(C2CCCCN2CCO)n1 (configuration not stated)" readout_kind="Percent Effect" experimental_value=-0.14
molecule=Cc1cc(C[C@@H]2CCC[C@H]2NCc2ccccc2C(F)(F)F)on1 readout_kind="Percent Effect" experimental_value=-4.94
molecule=COC[C@]12COC[C@H]1CN(Cc1cc(OC)cc(OC)c1)C2 readout_kind="Percent Effect" experimental_value=-2.64
molecule=O=C1[C@H]2CC[C@H](CN(Cc3ccccc3OC(F)F)C2)N1CC1CC1 readout_kind="Percent Effect" experimental_value=2.17
molecule=CC(C)c1nnc2n1CCN(C(=O)CN1Cc3ccccc3C1=O)C2 readout_kind="Percent Effect" experimental_value=-6.1
molecule="CN(C(=O)Cn1nc(-c2ccc(F)cc2)oc1=O)C1CCS(=O)(=O)C1 (configuration not stated)" readout_kind="Percent Effect" experimental_value=0.314
molecule="Cc1cnn(CC2CCCCN2CCC(=O)Nc2cc(C)on2)c1 (configuration not stated)" readout_kind="Percent Effect" experimental_value=-4.7
molecule=CCc1nnc2n1CCN(C(=O)c1ccc3nc(C)c(C)nc3c1)C2 readout_kind="Percent Effect" experimental_value=-3.88
molecule=CCOc1cccc2c1OCC(C(=O)NS(=O)(=O)c1ccc(C)s1)=C2 readout_kind="Percent Effect" experimental_value=-4.93
molecule=Cc1ncsc1CN1C[C@@H]2COC[C@]2(C(=O)NCC2CC2)C1 readout_kind="Percent Effect" experimental_value=-0.435
molecule=Cc1csc2c(N3CCC(NCCCc4ccncc4)CC3)ncnc12 readout_kind="Percent Effect" experimental_value=-0.362
molecule="CCOCC1CN(C(=O)c2cccn2C)Cc2cnn(CC3CC3)c21 (configuration not stated)" readout_kind="Percent Effect" experimental_value=-4.01
molecule="Cc1cc(CN(C)C(=O)C2CCS(=O)(=O)C2)no1 (configuration not stated)" readout_kind="Percent Effect" experimental_value=0.281
molecule="CCn1cc(NC(=O)NCC(O)c2ccccc2)cn1 (configuration not stated)" readout_kind="Percent Effect" experimental_value=-2.26
molecule=CC(C)CN1CCN(Cc2nc3ccccc3[nH]2)[C@H]2CS(=O)(=O)C[C@H]21 readout_kind="Percent Effect" experimental_value=-0.363
molecule=CC(C)n1cc(S(=O)(=O)N2CCCCC2)cn1 readout_kind="Percent Effect" experimental_value=-5.5
molecule=O=c1ccc(-c2cccs2)nn1CN1CCN(Cc2ccccc2)CC1 readout_kind="Percent Effect" experimental_value=-4.73
